experiment: Inhibition of Trypanosoma cruzi iron superoxide dismutase assessed as inhibition of NADPH reduction
Measured IC50 values are reported for all entries that follow.
endpoint: IC50 (µM)

[[record]]
item_smiles = "c1ccc2cc3c(NCCc4c[nH]cn4)nnc(NCCc4c[nH]cn4)c3cc2c1"
numeric_readout = 29.6

[[record]]
item_smiles = "Clc1nnc(NCCCn2ccnc2)c2cc3ccccc3cc12"
numeric_readout = 1.3

[[record]]
item_smiles = "c1ccc2cc3c(NCCCn4ccnc4)nnc(NCCCn4ccnc4)c3cc2c1"
numeric_readout = 28.3

[[record]]
item_smiles = "Clc1nnc(NCCc2c[nH]cn2)c2cc3ccccc3cc12"
numeric_readout = 9.4

[[record]]
item_smiles = "c1ccc2cc3c(Nc4cc[nH]n4)nnc(Nc4cc[nH]n4)c3cc2c1"
numeric_readout = 22.9

[[record]]
item_smiles = "Clc1nnc(Nc2cc[nH]n2)c2cc3ccccc3cc12"
numeric_readout = 17.2


* * *

target: UniProt:P00441
pIC50: −log10 of the molar value.
Class met: pIC50 at least 4. Class not met: pIC50 below 4.

[[record]]
item_smiles = "Clc1nnc(NCCc2c[nH]cn2)c2cc3ccccc3cc12"
discrete_label = "not met"

[[record]]
item_smiles = "c1ccc2cc3c(NCCCn4ccnc4)nnc(NCCCn4ccnc4)c3cc2c1"
discrete_label = "met"

[[record]]
item_smiles = "c1ccc2cc3c(NCCc4cnc[nH]4)nnc(NCCc4cnc[nH]4)c3cc2c1"
discrete_label = "not met"


* * *

Measured Activity values are reported for all entries that follow.
tested on: Trypanosoma cruzi; assay: Effect on metabolic excretion in epimastigotes of Trypanosoma cruzi assessed as acetate excretion level at IC25 concentration after 72 hrs by nuclear magnetic resonance spectroscopy analysis; format: ADME, organism-based
endpoint: Activity (%)

[[record]]
item_smiles = "Clc1nnc(Nc2cc[nH]n2)c2cc3ccccc3cc12"
study_system = "Trypanosoma cruzi"
numeric_readout = -36

[[record]]
item_smiles = "Clc1nnc(NCCc2c[nH]cn2)c2cc3ccccc3cc12"
study_system = "Trypanosoma cruzi"
numeric_readout = -18

[[record]]
item_smiles = "c1ccc2cc3c(NCCCn4ccnc4)nnc(NCCCn4ccnc4)c3cc2c1"
study_system = "Trypanosoma cruzi"
numeric_readout = -22

[[record]]
item_smiles = "Clc1nnc(NCCCn2ccnc2)c2cc3ccccc3cc12"
study_system = "Trypanosoma cruzi"
numeric_readout = -26

[[record]]
item_smiles = "c1ccc2cc3c(NCCc4cnc[nH]4)nnc(NCCc4cnc[nH]4)c3cc2c1"
study_system = "Trypanosoma cruzi"
numeric_readout = -30


* * *

test system: Trypanosoma cruzi; test: Effect on metabolic excretion in epimastigotes of Trypanosoma cruzi assessed as succinate excretion level at IC25 concentration after 72 hrs by nuclear magnetic resonance spectroscopy analysis; assay type: ADME, organism-based
Measured Activity values are reported for all entries that follow.
endpoint: Activity (%)

[[record]]
item_smiles = "Clc1nnc(Nc2cc[nH]n2)c2cc3ccccc3cc12"
numeric_readout = 27

[[record]]
item_smiles = "Clc1nnc(NCCCn2ccnc2)c2cc3ccccc3cc12"
numeric_readout = -49

[[record]]
item_smiles = "c1ccc2cc3c(Nc4ccn[nH]4)nnc(Nc4ccn[nH]4)c3cc2c1"
numeric_readout = -24

[[record]]
item_smiles = "c1ccc2cc3c(NCCc4cnc[nH]4)nnc(NCCc4cnc[nH]4)c3cc2c1"
numeric_readout = -39

[[record]]
item_smiles = "c1ccc2cc3c(NCCCn4ccnc4)nnc(NCCCn4ccnc4)c3cc2c1"
numeric_readout = -27

[[record]]
item_smiles = "Clc1nnc(NCCc2c[nH]cn2)c2cc3ccccc3cc12"
numeric_readout = -37


* * *

tested on: Trypanosoma cruzi; test: Effect on metabolic excretion in epimastigotes of Trypanosoma cruzi assessed as L-alanine excretion level at IC25 concentration after 72 hrs by nuclear magnetic resonance spectroscopy analysis; format: ADME, organism-based
Measured Activity values are reported for all entries that follow.
endpoint: Activity

[[record]]
item_smiles = "Clc1nnc(NCCCn2ccnc2)c2cc3ccccc3cc12"
result = "61%"

[[record]]
item_smiles = "c1ccc2cc3c(NCCCn4ccnc4)nnc(NCCCn4ccnc4)c3cc2c1"
result = "43%"

[[record]]
item_smiles = "Clc1nnc(NCCc2c[nH]cn2)c2cc3ccccc3cc12"
result = "22%"

[[record]]
item_smiles = "c1ccc2cc3c(NCCc4cnc[nH]4)nnc(NCCc4cnc[nH]4)c3cc2c1"
result = "35%"


* * *

Measurement record for Superoxide dismutase [Cu-Zn] (Homo sapiens, UniProt P00441); quantity recorded: pIC50.
pIC50: −log10 of the molar value.
endpoint: pIC50

[[record]]
item_smiles = "Clc1nnc(NCCCn2ccnc2)c2cc3ccccc3cc12"
numeric_readout = 3.89

[[record]]
item_smiles = "Clc1nnc(Nc2cc[nH]n2)c2cc3ccccc3cc12"
numeric_readout = 3.99

[[record]]
item_smiles = "c1ccc2cc3c(Nc4ccn[nH]4)nnc(Nc4ccn[nH]4)c3cc2c1"
numeric_readout = 4.02

